Overview of recorded inhibition for various compounds
system: Proto-oncogene tyrosine-protein kinase receptor Ret (Homo sapiens), P07949 [Y791F]; settings: at 1 µM
Sequence (P07949 whole entry Y791F): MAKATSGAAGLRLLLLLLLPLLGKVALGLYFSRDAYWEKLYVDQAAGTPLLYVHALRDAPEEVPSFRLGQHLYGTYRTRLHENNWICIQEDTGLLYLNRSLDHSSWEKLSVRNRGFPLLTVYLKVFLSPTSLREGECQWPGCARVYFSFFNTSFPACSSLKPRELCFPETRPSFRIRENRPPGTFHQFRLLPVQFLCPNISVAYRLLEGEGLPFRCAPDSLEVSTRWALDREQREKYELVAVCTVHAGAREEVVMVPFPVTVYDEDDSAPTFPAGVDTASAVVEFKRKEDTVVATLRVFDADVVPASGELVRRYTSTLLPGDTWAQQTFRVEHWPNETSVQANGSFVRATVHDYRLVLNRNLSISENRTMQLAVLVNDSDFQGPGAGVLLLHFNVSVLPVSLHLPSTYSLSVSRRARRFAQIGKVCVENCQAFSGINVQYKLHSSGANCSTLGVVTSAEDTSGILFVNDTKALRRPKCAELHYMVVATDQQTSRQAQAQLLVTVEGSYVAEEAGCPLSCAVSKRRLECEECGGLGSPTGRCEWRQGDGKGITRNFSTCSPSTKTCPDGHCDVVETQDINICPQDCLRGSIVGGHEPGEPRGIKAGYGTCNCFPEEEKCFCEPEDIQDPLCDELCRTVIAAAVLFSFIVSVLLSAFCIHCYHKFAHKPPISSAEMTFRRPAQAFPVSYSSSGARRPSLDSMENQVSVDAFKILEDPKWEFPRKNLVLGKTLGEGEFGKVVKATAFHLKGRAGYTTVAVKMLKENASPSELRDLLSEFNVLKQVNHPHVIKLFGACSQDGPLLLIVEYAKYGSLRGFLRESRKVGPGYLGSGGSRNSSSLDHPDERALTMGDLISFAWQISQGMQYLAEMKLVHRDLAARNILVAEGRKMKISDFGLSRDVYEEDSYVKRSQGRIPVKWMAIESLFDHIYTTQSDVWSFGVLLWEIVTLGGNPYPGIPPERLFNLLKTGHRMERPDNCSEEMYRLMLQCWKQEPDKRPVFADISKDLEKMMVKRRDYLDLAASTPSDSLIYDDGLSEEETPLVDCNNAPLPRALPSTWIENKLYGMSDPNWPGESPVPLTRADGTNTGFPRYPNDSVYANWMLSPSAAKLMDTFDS
Enter your answer as a number in %; do not include the unit.

Some solved cases for reference:
structure-as-smiles	value-kind	value
CCN(CC)Cc1ccc(Nc2nccc(-c3cnn4ncccc34)n2)cc1	inhibition	18.2
COc1cc2ncn(-c3cc(OCCc4ccccc4)c(C(N)=O)s3)c2cc1OC	inhibition	21.3
Fc1ccc(-c2ncn(C3CCNCC3)c2-c2ccnc(Oc3ccc(Oc4ccccc4)cc3)n2)cc1	inhibition	4.3

Exercise: Could you share which inhibition value was measured for "NS(=O)(=O)c1ccc(Nc2cc(-c3ccc(O)c(F)c3)n[nH]2)cc1" ?
Solution: 55.5

Exercise: Sample "Fc1ccc(-c2c(-c3ccncc3)nc3n2CCS3)cc1" — what was its inhibition?
Solution: 7.69

###

Below, each of the molecules is paired with its reported inhibition value.
molecular target: Tyrosine-protein kinase receptor UFO (Homo sapiens) (UniProt P30530); details: at 1 µM
Sequence (P30530 whole entry): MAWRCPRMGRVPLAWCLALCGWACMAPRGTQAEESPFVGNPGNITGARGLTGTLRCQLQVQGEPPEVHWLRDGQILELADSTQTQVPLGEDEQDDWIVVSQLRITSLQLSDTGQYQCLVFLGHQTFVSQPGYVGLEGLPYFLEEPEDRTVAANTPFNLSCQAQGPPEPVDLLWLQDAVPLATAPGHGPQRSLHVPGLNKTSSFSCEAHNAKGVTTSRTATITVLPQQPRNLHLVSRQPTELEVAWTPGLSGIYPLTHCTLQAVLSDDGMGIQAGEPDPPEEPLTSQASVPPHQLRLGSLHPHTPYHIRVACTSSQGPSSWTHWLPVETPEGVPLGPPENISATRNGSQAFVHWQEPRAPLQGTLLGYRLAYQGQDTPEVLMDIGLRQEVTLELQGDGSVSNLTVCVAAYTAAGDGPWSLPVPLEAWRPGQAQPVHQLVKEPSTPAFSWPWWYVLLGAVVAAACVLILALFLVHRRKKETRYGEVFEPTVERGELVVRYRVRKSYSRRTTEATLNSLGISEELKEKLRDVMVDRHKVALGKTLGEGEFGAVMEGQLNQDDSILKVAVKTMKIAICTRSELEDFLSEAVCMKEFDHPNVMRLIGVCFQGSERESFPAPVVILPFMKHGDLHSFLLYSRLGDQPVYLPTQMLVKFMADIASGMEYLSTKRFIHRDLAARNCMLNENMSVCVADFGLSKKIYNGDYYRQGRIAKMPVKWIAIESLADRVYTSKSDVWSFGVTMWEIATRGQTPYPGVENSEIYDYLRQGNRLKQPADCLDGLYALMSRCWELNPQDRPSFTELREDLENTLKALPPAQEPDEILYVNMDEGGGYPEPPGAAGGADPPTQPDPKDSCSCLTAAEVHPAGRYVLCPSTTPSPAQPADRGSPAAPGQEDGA
Description: GSK_PKIS: AXL mean inhibition at 1 uM [Nanosyn]
Record the value in %, omitting the unit from your answer.

Exercise: Given the molecule "CS(=O)(=O)CCNCc1ccc(-c2ccc3ncnc(Nc4ccc(OCc5ccccc5)c(Br)c4)c3c2)o1" , what is its reported inhibition?
Solution: -7.91

Exercise: Field request: inhibition | item: "O=C(Nc1ccc(Oc2ccc3[nH]c(NC(=O)c4ccccc4)nc3c2)cc1)Nc1cc(C(F)(F)F)ccc1F"
Solution: 19.2

###

Biological target: Testis-specific serine/threonine-protein kinase 1 (Homo sapiens) (UniProt Q9BXA7);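 note: mean percent inhibition of TSSK1, from the GSK PKIS screening dataset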
Sequence (whole entry): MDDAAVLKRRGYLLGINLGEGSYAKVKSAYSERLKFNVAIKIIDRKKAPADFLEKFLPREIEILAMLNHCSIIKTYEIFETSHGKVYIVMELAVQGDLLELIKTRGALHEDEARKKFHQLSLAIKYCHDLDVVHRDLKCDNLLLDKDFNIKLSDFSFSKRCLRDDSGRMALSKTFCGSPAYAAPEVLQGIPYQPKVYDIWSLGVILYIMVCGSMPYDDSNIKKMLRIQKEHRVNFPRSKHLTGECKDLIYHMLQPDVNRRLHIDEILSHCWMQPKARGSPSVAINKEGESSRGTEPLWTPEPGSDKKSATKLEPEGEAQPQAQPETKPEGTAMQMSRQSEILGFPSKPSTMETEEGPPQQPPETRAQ
Settings: at 0.1 µM
Listing: inhibition of selected compounds
Only the number, expressed in %, is required.

# annotated cases, reported inhibition shown
compound	inhibition (%)
C[C@@H](Oc1cc(-n2cnc3ccc(OC4CCN(C)CC4)cc32)sc1C(N)=O)c1ccccc1Cl	4.11
COc1cccc(-n2cnc3c(N/N=C/c4ccncc4)ncnc32)c1	0.41
NS(=O)(=O)c1ccc(N/N=C2\C(=O)Nc3ccc(-c4cnco4)cc32)cc1	2.73
NS(=O)(=O)c1ccc(N/N=C2\C(=O)Nc3ccc(C(=O)NCCCn4ccnc4)cc32)cc1	7.1
Fc1ccc(-c2ncn(CCCN3CCOCC3)c2-c2ccncc2)cc1	-0.41
COc1cc2ncn(-c3cc(OCCc4ccccc4)c(C(N)=O)s3)c2cc1OC	1.85

Exercise: Could you tell me which inhibition is on file for "O=C(Nc1n[nH]c2cc(-c3cc(F)ccc3F)ccc12)C1CC1" ?
Solution: 2.75

Exercise: Quick check: inhibition of "COc1cc(C)c(N(C)C(=O)CN(C)C)cc1Nc1nc(Nc2cccc(F)c2C(N)=O)c2cc[nH]c2n1" ?
Solution: 3.79

Exercise: Any idea what inhibition was measured for "CN(C)c1ccc2c(c1)/C(=C/Nc1ccc(S(N)(=O)=O)cc1)C(=O)N2" ?
Solution: 2.84

Exercise: Item under review: "O=C1NC(=O)C(c2cccc(Cl)c2)=C1Nc1ccc(Cl)c(C(=O)O)c1" . Reported inhibition?
Solution: 4.88

Exercise: Item under review: "CCc1nccc2c1nc(-c1nonc1N)n2CC" . Reported inhibition?
Solution: 0.58

Exercise: Given the entry "Clc1ccc(CNc2nccc(-c3cnn4ncccc34)n2)cc1" , report its measured inhibition.
Solution: 0.5
